# test_name: Biodistribution study with lead-212
# Format: in vivo, mouse
# reported_conditions: mouse, stomach, intravenous, 100 kBq, 4 h p.i.; n = 4; read-out: Stomach uptake
property: tissue uptake at 4 h (%ID/g)
Report the figure in %ID/g without appending any unit label.

Example cases with answers are listed next.
molecule | tissue uptake at 4 h [%ID/g]
C[C@@H](O)[C@H](NC(=O)[C@@H]1CSSC[C@H](NC(=O)[C@@H](Cc2ccccc2)NC(=O)CN2CCC(NC(=O)CN3CCN(CC(N)=O)CCN(CC(N)=O)CCN(CC(N)=O)CC3)CC2)C(=O)N[C@@H](Cc2ccc(O)cc2)C(=O)N[C@H](Cc2c[nH]c3ccccc23)C(=O)N[C@@H](CCCCN)C(=O)N[C@@H]([C@@H](C)O)C(=O)N1)C(=O)O [[^212Pb]Pb-eSOMA-02, metal not drawn] | 1.17
C[C@@H](O)[C@H](NC(=O)[C@@H]1CSSC[C@H](NC(=O)[C@@H](Cc2ccccc2)NC(=O)CN2CCN(CC(N)=O)CCN(CC(N)=O)CCN(CC(N)=O)CC2)C(=O)N[C@@H](Cc2ccc(O)cc2)C(=O)N[C@H](Cc2c[nH]c3ccccc23)C(=O)N[C@@H](CCCCN)C(=O)N[C@@H]([C@@H](C)O)C(=O)N1)C(=O)O [[^212Pb]Pb-DOTAM-TATE, metal not drawn, reference compound] | 1.62

Now, please, on to the next molecule.
q: Please report tissue uptake at 4 h for the following molecule: C[C@@H](O)[C@H](NC(=O)[C@@H]1CSSC[C@H](NC(=O)[C@@H](Cc2ccccc2)NC(=O)[C@H]2CC[C@H](CNC(=O)CN3CCN(CC(N)=O)CCN(CC(N)=O)CCN(CC(N)=O)CC3)CC2)C(=O)N[C@@H](Cc2ccc(O)cc2)C(=O)N[C@H](Cc2c[nH]c3ccccc23)C(=O)N[C@@H](CCCCN)C(=O)N[C@@H]([C@@H](C)O)C(=O)N1)C(=O)O [[^212Pb]Pb-eSOMA-01, metal not drawn]
a: 2.51

---

# test_name: In vitro stability in PBS
# Format: physicochemical
# reported_conditions: phosphate buffered saline, pH 7.4; ^203Pb-labeled; 24 h; 37 °C; n = 1; read-out: Stability in PBS, intact labeled ligand
# Description: The ^203Pb-labeled compounds (~ 2 MBq) or the ^212Pb-labeled compounds (~ 70 kBq) were incubated in 300 µL of phosphate buffered saline (PBS; 0.1 M, pH 7.4) or mouse serum at 37 °C. The stability of the radiolabeled peptides was monitored at 1, 4, and 24 h post-incubation. The samples in PBS were directly analyzed by radio-HPLC without any pretreatment. However, samples of mouse serum were mixed with an equal volume of acetonitrile to precipitate the proteins. […]
property: remaining at 24 h

q: Please report remaining at 24 h for the following compound: C[C@@H](O)[C@H](NC(=O)[C@@H]1CSSC[C@H](NC(=O)[C@@H](Cc2ccccc2)NC(=O)CN2CCN(CC(N)=O)CCN(CC(N)=O)CCN(CC(N)=O)CC2)C(=O)N[C@@H](Cc2ccc(O)cc2)C(=O)N[C@H](Cc2c[nH]c3ccccc23)C(=O)N[C@@H](CCCCN)C(=O)N[C@@H]([C@@H](C)O)C(=O)N1)C(=O)O [[^203Pb]Pb-DOTAM-TATE, metal not drawn, reference compound]
a: > 97%
